Kindly state melting point for each of the entries shown.

Request: // melting point lookup, key: COc1cc(OCc2ccc(C(F)(F)F)nc2)ccc1-c1nc(-c2ccc(F)cn2)[nH]c1Cl
Result: 186 to 193 °C (dec.)

Request: Again, but for COc1cc(OCc2ncc(C(F)(F)F)cc2F)ccc1-c1[nH]c(C(C)C)nc1Cl
Result: 131 to 135 °C

Request: Again, but for COc1cc(OCc2ccc(C(F)(F)F)cn2)ccc1-c1nc(-c2ccc(F)nc2)n(C)c1Br
Result: 179 to 181 °C

Request: Again, but for COc1cc(OCc2ccc(C(F)(F)F)nc2)ccc1-c1[nH]c(C2CCC(F)(F)C2)nc1Cl (stereo not shown)
Result: 172 to 174 °C

Request: Again, but for COc1cc(OCc2ccccc2)ccc1-c1[nH]c(-c2ccc(F)nc2)nc1C
Result: 169 to 171 °C

Request: Again, but for COc1cc(OCc2ccc(Br)cc2F)ccc1-c1cnc(-c2ccc(F)nc2)[nH]1
Result: 177 to 180 °C

Request: Again, but for COc1c(OCc2ccc(C(F)(F)F)nc2)ccc(-c2[nH]c(C3CCC(F)(F)CC3)nc2Cl)c1OC
Result: 148 to 150 °C

Request: Again, but for COc1cc(OCc2ncc(C(F)(F)F)cc2F)ccc1-c1cnc(-c2ccc(Br)nc2)[nH]1
Result: 191 to 193 °C

Request: Again, but for COc1cc(OCc2ccc(C(F)(F)F)cn2)ccc1-c1c[nH]c(-c2cccc(N3CCCC3)n2)n1
Result: 100 to 108 °C

Request: Again, but for COc1cc(-c2c[nH]c(-c3ccc(F)nc3)n2)ccc1OCc1ncccc1F
Result: 68 to 79 °C

Request: Again, but for COc1cc(-c2nc(-c3ccc(Cl)cn3)[nH]c2C)ccc1OCc1ccc(C(F)(F)F)nc1
Result: 267 to 269 °C

Request: Again, but for CCc1cc(OCc2ncc(C(F)(F)F)cc2F)ccc1-c1cnc(-c2ccc(F)nc2)[nH]1
Result: 115 to 117 °C

Request: Again, but for COc1cc(-c2c[nH]c(C34CC5CC(CC(C5)C3)C4)n2)cc(OC)c1OCc1ccc(C(F)(F)F)cn1
Result: 144 to 168 °C

Request: Again, but for COc1cc(OCc2ccc(Br)cc2F)ccc1-c1c[nH]c(-c2ccc(Cl)nc2)n1
Result: 220 to 222 °C

Request: Again, but for COc1cc(OCc2ncc(C(F)(F)F)cc2F)ccc1-c1[nH]c(C2CC(F)(F)C2)nc1C
Result: 172 to 174 °C

Request: Again, but for COc1cc(OCc2ccc(C(F)(F)F)cn2)ccc1-c1c[nH]c(C2CCCCC2)n1
Result: 226 to 228 °C
